Assay: gradient 5% acetonitrile 3 min, to 50% in 2 min, to 85% in 15 min, held 3 min, 100 µL/min
Conditions: column: Zorbax Extend-C18 2.1 x 50 mm; eluents: water / acetonitrile, 0.1% formic acid
Kindly return 1 if reported RP-LC retention time is no lower than 800 s; return -1 if it is lower.

1. CCN(Cc1ccccc1)C(=O)C1CCN(S(=O)(=O)c2ccc3c(c2)sc(=O)n3CC)CC1 | 1
2. COc1ccccc1NC(=O)Cn1nc2c3sc(N(C)C)nc3ncn2c1=O | -1
3. CN(C)c1ccc(CN2C(=O)CN(S(C)(=O)=O)CC2(C)C(=O)NCc2ccccc2)cc1 (stereo not drawn) | -1

stdin: I'd appreciate it if you could say whether COC1CCC12CCN(C(=O)CC1CCN(C(C)=O)CC1)CC2 (stereo not drawn) has RP-LC retention time at least equal to 800 s.
stdout: -1

###

Test: gradient 5% acetonitrile 3 min, to 50% in 2 min, to 85% in 15 min, held 3 min, 100 µL/min
Settings: column: Zorbax Extend-C18 2.1 x 50 mm; eluents: water / acetonitrile, 0.1% formic acid
// class assignment uses RP-LC retention time with these ranges: one = under 700 s, two = from 700 s up to 800 s, three = 800 s and over

1) Cc1cccc(N2CCN(Cc3nc4nc(C)cc(N(C)C)n4n3)CC2)c1 | one

stdin: Into which bin does this compound go? `Cc1ccc(CNS(=O)(=O)c2cc(-c3[nH]ncc3C(=O)N3CCCC3)oc2C)cc1`
stdout: two

stdin: Into which bin does this compound go? `O=C(c1ccc2c(c1)CCCC2)N1CCN(c2ccccc2)CC1`
stdout: three

stdin: Into which bin does this compound go? `COc1cc2c(cc1CNC(=O)COc1ccc(Br)cc1)OCCCO2`
stdout: three

stdin: Into which bin does this compound go? `COc1ncc(C(=O)N2CCCCC2)cn1`
stdout: one

stdin: Into which bin does this compound go? `Cc1nnc(-c2ccc3ccn(CC(=O)NCc4ccc(F)cc4)c3c2)o1`
stdout: two

stdin: Into which bin does this compound go? `O=C(NCc1ccco1)c1ccc2c(c1)nc1n2CCCCC1`
stdout: one

stdin: Into which bin does this compound go? COC(=O)C1=C(C)NC2=C(C(=O)c3ccccc32)C1c1ccc(OC)cc1OC (stereo not given)
stdout: three

###

Experiment: gradient 5% acetonitrile 3 min, to 50% in 2 min, to 85% in 15 min, held 3 min, 100 µL/min
Details: column: Zorbax Extend-C18 2.1 x 50 mm; eluents: water / acetonitrile, 0.1% formic acid
Measurement Label: RP-LC retention time
Reply with the number and its unit after it.

Answered examples (4):
1. COc1ccc(OC)c(NS(=O)(=O)c2cc(-c3nc(C)cs3)n(CC(=O)N3CCCC3)c2)c1 | 903 s
2. CCC(C)Nc1nc(NC)nc(-n2cnc(SC)n2)n1 (stereo not given) | 790 s
3. Cc1cc2nn(CC(=O)Nc3ccc(F)c(F)c3)c(=O)n2c(Nc2ccc(F)cc2)n1 | 1020 s
4. C=CCN1C(=O)COc2ccc(-c3csc(NC(=O)C(C)C)n3)cc21 | 895 s

Please look at the following compound next.
stdin: Give the reported value of RP-LC retention time for this record: `CCCN1C(=O)c2ccccc2Sc2cc(-c3noc(CNC(C)=O)n3)ccc21`
stdout: 775 s

###

Assay: gradient 5% acetonitrile 3 min, to 50% in 2 min, to 85% in 15 min, held 3 min, 100 µL/min
Conditions: column: Zorbax Extend-C18 2.1 x 50 mm; eluents: water / acetonitrile, 0.1% formic acid
Doc: threshold 800 s (exclusive). Items with RP-LC retention time beneath it return condition met; others return condition not met.

Before answering, review these 5 worked examples.
1. CCOc1ccc(S(=O)(=O)N2CCCC(C(=O)NCCO)C2)cc1C (centres undefined) | condition met
2. NC(=O)C1CCN(C(=O)CN2CCc3ccccc32)CC1 | condition met
3. O=C(c1cc(F)ccc1F)N1CCC2(CC1)N=C(c1ccc(Cl)cc1)NO2 | condition not met
4. Cc1ccc(S(=O)(=O)N2C[C@@H](F)C[C@H]2C(=O)N2CCCCC2)cc1F | condition not met
5. Cc1sc(NC(=O)c2ccc(Cl)cc2)nc1-c1ccc2c(c1)NC(=O)CO2 | condition not met

# ---- query compound ----
stdin: I'd appreciate it if you could check whether `Cc1ccc(C(=O)Nc2nc(-c3ccccc3)cs2)cc1[N+](=O)[O-]` has RP-LC retention time smaller than 800 s.
stdout: condition not met

###

Experiment: gradient 5% acetonitrile 3 min, to 50% in 2 min, to 85% in 15 min, held 3 min, 100 µL/min
Conditions: column: Zorbax Extend-C18 2.1 x 50 mm; eluents: water / acetonitrile, 0.1% formic acid
Kindly return condition met if reported RP-LC retention time is no lower than 800 s; return condition not met if it is lower.

stdin: I'd appreciate it if you could say whether `Cc1noc([C@@H]2CN(C(=O)CC(C)(C)C)C[C@H]2CO)n1` has RP-LC retention time at least equal to 800 s.
stdout: condition not met

stdin: I'd appreciate it if you could say whether `O=C(NCC1CC1)c1c(O)c2cccnc2n(Cc2ccccc2)c1=O` has RP-LC retention time at least equal to 800 s.
stdout: condition met

stdin: I'd appreciate it if you could say whether `CC1(C)C(=O)N(CC(=O)N2CCN(c3ccc(F)cc3)CC2)c2ccccc21` has RP-LC retention time at least equal to 800 s.
stdout: condition met

stdin: I'd appreciate it if you could say whether `O=C(Cc1nnc(-c2ccc3ncccc3c2)o1)NCCc1ccc(Cl)cc1` has RP-LC retention time at least equal to 800 s.
stdout: condition not met

###

Assay: gradient 5% acetonitrile 3 min, to 50% in 2 min, to 85% in 15 min, held 3 min, 100 µL/min
Conditions: column: Zorbax Extend-C18 2.1 x 50 mm; eluents: water / acetonitrile, 0.1% formic acid
// class assignment uses RP-LC retention time with these ranges: class 1 (below 700 s), class 2 (700 s to below 900 s), class 3 (900 s or more)

1. CCc1nc2cc(N3CCC(C(=O)NCCN4CCCC4)CC3)cnc2nc1CC | class 1
2. COc1ccc(C(C)NC(=O)C2CCCN(c3nccnc3Sc3ccc(C)cc3)C2)cc1 (stereo not drawn) | class 3
3. CCCN1CCN(c2ncc(C(=O)Nc3ccccc3)c(N)n2)CC1 | class 1
4. COc1ccc(CNC(=O)c2cn(-c3cc(N(C)C)ncn3)cn2)cc1 | class 2
5. O=c1[nH]c2ccc(NCc3cccc(Cl)c3Cl)cc2[nH]1 | class 2
6. O=C1CCCC2=C1C(c1ccccc1Cl)C1=C(CCCC1=O)O2 | class 2

stdin: Into which bin does this compound go? `COc1ccc(NS(=O)(=O)c2cn(C)c3ncccc23)cc1`
stdout: class 2

stdin: Into which bin does this compound go? CC(C)(C)c1ccc(-c2nc(C3CC(=O)N(c4ccc(F)cc4)C3)no2)cc1 (stereo not drawn)
stdout: class 3

stdin: Into which bin does this compound go? O=C(Cc1c[nH]c2ccccc12)N1CCCN(C2CCN(CC3CC3)C2=O)CC1 (stereo not drawn)
stdout: class 1

stdin: Into which bin does this compound go? `CC(C)c1nnc(NC(=O)C2CCN(C(=O)c3ccccc3F)CC2)s1`
stdout: class 2

stdin: Into which bin does this compound go? `Cc1ccccc1Nc1c(-c2cccc(O)c2)nc2cccc(C)n12`
stdout: class 1

stdin: Into which bin does this compound go? `CCOc1ccc(-c2nc(COc3cc(C)c4c(C)nn(C)c4n3)c(C)o2)cc1OC`
stdout: class 3

stdin: Into which bin does this compound go? `Clc1ccccc1-c1ccnc2nc(-c3ccccc3)nn12`
stdout: class 3

stdin: Into which bin does this compound go? `CCOc1ccc(-c2csc(NC(=O)CCCOc3ccc(Cl)cc3)n2)cc1`
stdout: class 2

stdin: Into which bin does this compound go? `Cc1cccc(CNC(=O)c2[nH]c3cc(C)sc3c2CN2CCOCC2)c1`
stdout: class 2

stdin: Into which bin does this compound go? CCc1cccc(N2C(=O)CN(S(=O)(=O)CC)CC2(C)C(=O)NCc2ccccc2)c1 (stereo not drawn)
stdout: class 2

###

Experiment: gradient 5% acetonitrile 3 min, to 50% in 2 min, to 85% in 15 min, held 3 min, 100 µL/min
Conditions: column: Zorbax Extend-C18 2.1 x 50 mm; eluents: water / acetonitrile, 0.1% formic acid
As shown below, each of these molecules has a reported RP-LC retention time value.
Reply with the number and its unit after it.

1) COc1ccc(-c2nc(Nc3c(C)n[nH]c3C)sc2C)cc1 | 630 s

stdin: Give the reported value of RP-LC retention time for this record: `O=C(CC1CCN(C(=O)c2ccc3oc(C4CC4)nc3c2)CC1)NCc1ccco1`
stdout: 693 s

stdin: Give the reported value of RP-LC retention time for this record: CC(NC(=O)C(=O)N1CCOCC1)C(c1cccs1)N1CCN(Cc2ccccc2)CC1 (stereo not given)
stdout: 600 s

stdin: Give the reported value of RP-LC retention time for this record: `CN1C(=O)c2ccccc2Oc2ccc(C(=O)N3CCOCC3)cc21`
stdout: 675 s

stdin: Give the reported value of RP-LC retention time for this record: `CS(=O)(=O)c1ccc(CC(=O)N2CC(Cc3nncn3CC3CC3)C2)cc1`
stdout: 592 s

src = the METLIN SMRT retention time set (Domingo-Almenara et al. 2019)
